Origin of values: the supplement of paper PMC10307832

# Tested on: NCI-H1792
# METHOD_NOTES: relative viability (nuclei count vs DMSO), 5 days (fraction); higher = more cells survive
# MEASUREMENT_PARAMETERS: first compound 0.1265 µM
EXPERIMENTAL_READOUT: relative viability
Quick one: just the number, no unit, thanks!

// known answers, use as guide
{"columns": ["COMPOUND", "EXPERIMENTAL_READOUT", "NUMERIC_VALUE"],
 "data": [
  ["Clc1ccc(Nc2nnc(Cc3ccncc3)c3ccccc23)cc1 [Vatalanib] + CC(=O)Nc1cccc(-n2c(=O)n(C3CC3)c(=O)c3c(Nc4ccc(I)cc4F)n(C)c(=O)c(C)c32)c1 [Trametinib] (partner 0.02 µM)", "relative viability", 0.395],
  ["C[C@@H]1CN(CC(=O)Nc2ccc3c(c2)Cc2cccc(-c4cc(=O)cc(N5CCOCC5)o4)c2S3)C[C@H](C)O1 + CS(=O)(=O)N1CCN(Cc2cc3nc(-c4cccc5[nH]ncc45)nc(N4CCOCC4)c3s2)CC1 [Pictilisib] (partner 1 µM)", "relative viability", 0.264],
  ["COc1cc(N2CCC(C(N)=O)CC2)ccc1Nc1nc(N)c(Cl)c(Nc2ccccc2S(=O)(=O)C(C)C)n1 [HG-5-88-01] + COc1cccc2cc(-c3nc([C@H]4CC[C@H](C(=O)O)CC4)n4ncnc(N)c34)[nH]c12 [OSI-027] (partner 0.5 µM)", "relative viability", 0.823]
]}

Here's the next entry for you.
Lookup: Look up relative viability with NCI-H1792 for this compound: COc1cc(N2CCC(C(N)=O)CC2)ccc1Nc1nc(N)c(Cl)c(Nc2ccccc2S(=O)(=O)C(C)C)n1 [HG-5-88-01] + Cc1nc(Nc2ncc(C(=O)Nc3c(C)cccc3Cl)s2)cc(N2CCN(CCO)CC2)n1 [Dasatinib] (partner 0.075 µM)
Found: 0.693

###

# Tested on: NCI-H1793
# METHOD_NOTES: relative viability (nuclei count vs DMSO), 5 days (fraction); higher = more cells survive
# MEASUREMENT_PARAMETERS: first compound 0.1265 µM
EXPERIMENTAL_READOUT: relative viability
Quick one: just the number, no unit, thanks!

// known answers, use as guide
{"columns": ["MOLECULE", "relative viability"],
 "data": [
  ["C[C@@H]1CN(CC(=O)Nc2ccc3c(c2)Cc2cccc(-c4cc(=O)cc(N5CCOCC5)o4)c2S3)C[C@H](C)O1 + Cc1nc(Nc2ncc(C(=O)Nc3c(C)cccc3Cl)s2)cc(N2CCN(CCO)CC2)n1 [Dasatinib] (partner 0.075 µM)", 0.373],
  ["COc1cc(N2CCC(C(N)=O)CC2)ccc1Nc1nc(N)c(Cl)c(Nc2ccccc2S(=O)(=O)C(C)C)n1 [HG-5-88-01] + CC(=O)Nc1cccc(-n2c(=O)n(C3CC3)c(=O)c3c(Nc4ccc(I)cc4F)n(C)c(=O)c(C)c32)c1 [Trametinib] (partner 0.02 µM)", 0.381]
]}

Lookup: Dear colleague, I am looking for the recorded relative viability of the following molecule: COc1cc(N2CCC(C(N)=O)CC2)ccc1Nc1nc(N)c(Cl)c(Nc2ccccc2S(=O)(=O)C(C)C)n1 [HG-5-88-01] + CS(=O)(=O)N1CCN(Cc2cc3nc(-c4cccc5[nH]ncc45)nc(N4CCOCC4)c3s2)CC1 [Pictilisib] (partner 1 µM)
Found: 0.336

Lookup: # repeat for Clc1ccc(Nc2nnc(Cc3ccncc3)c3ccccc23)cc1 [Vatalanib] + COc1cccc2cc(-c3nc([C@H]4CC[C@H](C(=O)O)CC4)n4ncnc(N)c34)[nH]c12 [OSI-027] (partner 0.5 µM)
Found: 0.226

Lookup: # repeat for C[C@@H]1CN(CC(=O)Nc2ccc3c(c2)Cc2cccc(-c4cc(=O)cc(N5CCOCC5)o4)c2S3)C[C@H](C)O1 + CC1(C)CCC(c2ccc(Cl)cc2)=C(CN2CCN(c3ccc(C(=O)NS(=O)(=O)c4ccc(N[C@H](CCN5CCOCC5)CSc5ccccc5)c(S(=O)(=O)C(F)(F)F)c4)cc3)CC2)C1 [Navitoclax] (partner 0.5 µM)
Found: 0.341

Lookup: # repeat for C[C@@H]1CN(CC(=O)Nc2ccc3c(c2)Cc2cccc(-c4cc(=O)cc(N5CCOCC5)o4)c2S3)C[C@H](C)O1 + CC(=O)c1c(C)c2cnc(Nc3ccc(N4CCNCC4)cn3)nc2n(C2CCCC2)c1=O [Palbociclib] (partner 0.5 µM)
Found: 0.323

Lookup: # repeat for COc1cc(N2CCC(C(N)=O)CC2)ccc1Nc1nc(N)c(Cl)c(Nc2ccccc2S(=O)(=O)C(C)C)n1 [HG-5-88-01] + Cc1nc(NC(=O)N2CCC[C@H]2C(N)=O)sc1-c1ccnc(C(C)(C)C(F)(F)F)c1 [Alpelisib] (partner 2 µM)
Found: 0.613

Lookup: # repeat for COc1cc(N2CCC(C(N)=O)CC2)ccc1Nc1nc(N)c(Cl)c(Nc2ccccc2S(=O)(=O)C(C)C)n1 [HG-5-88-01] + Nc1nc2[nH]cc(CCc3ccc(C(=O)N[C@@H](CCC(=O)O)C(=O)O)cc3)c2c(=O)[nH]1 [Pemetrexed] (partner 0.2 µM)
Found: 0.8

Lookup: # repeat for Clc1ccc(Nc2nnc(Cc3ccncc3)c3ccccc23)cc1 [Vatalanib] + CC1(C)CCC(c2ccc(Cl)cc2)=C(CN2CCN(c3ccc(C(=O)NS(=O)(=O)c4ccc(N[C@H](CCN5CCOCC5)CSc5ccccc5)c(S(=O)(=O)C(F)(F)F)c4)cc3)CC2)C1 [Navitoclax] (partner 0.5 µM)
Found: 0.435

###

# Tested on: NCI-H1395
# METHOD_NOTES: relative viability (nuclei count vs DMSO), 5 days (fraction); higher = more cells survive
# MEASUREMENT_PARAMETERS: first compound 4 µM
relative viability values by entry

{"columns": ["COMPOUND", "relative viability"],
 "data": [
  ["Clc1ccc(Nc2nnc(Cc3ccncc3)c3ccccc23)cc1 [Vatalanib] + O=C(CCCCCCC(=O)Nc1ccccc1)NO [Vorinostat] (partner 1 µM)", 0.726]
]}

Lookup: Look up relative viability with NCI-H1395 for this compound: COc1cc(N2CCC(C(N)=O)CC2)ccc1Nc1nc(N)c(Cl)c(Nc2ccccc2S(=O)(=O)C(C)C)n1 [HG-5-88-01] + CC(=O)Nc1cccc(-n2c(=O)n(C3CC3)c(=O)c3c(Nc4ccc(I)cc4F)n(C)c(=O)c(C)c32)c1 [Trametinib] (partner 0.02 µM)
Found: 1.13

Lookup: # repeat for C[C@@H]1CN(CC(=O)Nc2ccc3c(c2)Cc2cccc(-c4cc(=O)cc(N5CCOCC5)o4)c2S3)C[C@H](C)O1 + Cc1nc(NC(=O)N2CCC[C@H]2C(N)=O)sc1-c1ccnc(C(C)(C)C(F)(F)F)c1 [Alpelisib] (partner 2 µM)
Found: 1.08

Lookup: # repeat for C[C@@H]1CN(CC(=O)Nc2ccc3c(c2)Cc2cccc(-c4cc(=O)cc(N5CCOCC5)o4)c2S3)C[C@H](C)O1 + CS(=O)(=O)N1CCN(Cc2cc3nc(-c4cccc5[nH]ncc45)nc(N4CCOCC4)c3s2)CC1 [Pictilisib] (partner 1 µM)
Found: 0.559

Lookup: # repeat for Clc1ccc(Nc2nnc(Cc3ccncc3)c3ccccc23)cc1 [Vatalanib] + Cc1nc(NC(=O)N2CCC[C@H]2C(N)=O)sc1-c1ccnc(C(C)(C)C(F)(F)F)c1 [Alpelisib] (partner 2 µM)
Found: 0.971

Lookup: # repeat for Clc1ccc(Nc2nnc(Cc3ccncc3)c3ccccc23)cc1 [Vatalanib] + NC(=O)Nc1cc(-c2cccc(F)c2)sc1C(=O)N[C@H]1CCCNC1 [AZD7762] (partner 0.2 µM)
Found: 0.394

Lookup: # repeat for COc1cc(N2CCC(C(N)=O)CC2)ccc1Nc1nc(N)c(Cl)c(Nc2ccccc2S(=O)(=O)C(C)C)n1 [HG-5-88-01] + CC1(C)CCC(c2ccc(Cl)cc2)=C(CN2CCN(c3ccc(C(=O)NS(=O)(=O)c4ccc(N[C@H](CCN5CCOCC5)CSc5ccccc5)c(S(=O)(=O)C(F)(F)F)c4)cc3)CC2)C1 [Navitoclax] (partner 0.5 µM)
Found: 1.09

Lookup: # repeat for COc1cc(N2CCC(C(N)=O)CC2)ccc1Nc1nc(N)c(Cl)c(Nc2ccccc2S(=O)(=O)C(C)C)n1 [HG-5-88-01] + C[C@]1(O)C[C@@H](c2nc(-c3ccc4ccc(-c5ccccc5)nc4c3)c3c(N)nccn32)C1 [Linsitinib] (partner 1 µM)
Found: 1.09

###

# Tested on: PC-14
# METHOD_NOTES: relative viability (nuclei count vs DMSO), 5 days (fraction); higher = more cells survive
# MEASUREMENT_PARAMETERS: first compound 0.4 µM
EXPERIMENTAL_READOUT: relative viability
Quick one: just the number, no unit, thanks!

// known answers, use as guide
{"columns": ["COMPOUND", "TARGET", "EXPERIMENTAL_READOUT", "NUMERIC_VALUE"],
 "data": [
  ["C[C@@H]1CN(CC(=O)Nc2ccc3c(c2)Cc2cccc(-c4cc(=O)cc(N5CCOCC5)o4)c2S3)C[C@H](C)O1 + NC(=O)Nc1cc(-c2cccc(F)c2)sc1C(=O)N[C@H]1CCCNC1 [AZD7762] (partner 0.2 µM)", "PC-14", "relative viability", 0.32],
  ["COc1cc(N2CCC(C(N)=O)CC2)ccc1Nc1nc(N)c(Cl)c(Nc2ccccc2S(=O)(=O)C(C)C)n1 [HG-5-88-01] + CCNC(=O)c1noc(-c2cc(C(C)C)c(O)cc2O)c1-c1ccc(CN2CCOCC2)cc1 [Luminespib] (partner 0.01 µM)", "PC-14", "relative viability", 0.181]
]}

Lookup: Dear colleague, I am looking for the recorded relative viability of the following compound: Clc1ccc(Nc2nnc(Cc3ccncc3)c3ccccc23)cc1 [Vatalanib] + O=C(CCCCCCC(=O)Nc1ccccc1)NO [Vorinostat] (partner 1 µM)
Found: 0.801
